System: K562 (chronic myelogenous leukemia; leukemia cell line +ve for Bcr-Abl)
Assay: Cancer cell assay, tumor cells K562
Format: cell-based
Details: Homo sapiens, compound in DMSO 0.01 μM to 100 μM, examined 96 hours later, viable cells by trypan blue exclusion
Method: The effect of the compounds of the invention on tumor cells was determined by the assay described by Latham et al., Oncogene 12:827-837 (1996). […] When necessary, the total number of viable cells was determined by trypsinizing the wells and counting the number of viable cells, as determined by trypan blue exclusion, using a hemacytometer.
Readings of IC50 for the listed molecules
Please format your answer as a value with the unit trailing.

Sample records with IC50:
COc1ccc(CCS(=O)(=O)Nc2c(OC)cc(OC)cc2OC)cc1 | 2.5 µM
COc1cc(OC)c(CCC(=O)Nc2ccc(OC)c(N)c2)c(OC)c1 | 0.15 µM
COc1cc(OC)c(CCNS(=O)(=O)c2ccc(OC)c(N)c2)c(OC)c1 | 0.75 µM

stdin: Provide IC50 value for the following molecule: `COc1cc(OC)c(CCS(=O)(=O)Cc2ccc(OC)c(N)c2)c(OC)c1`
stdout: 0.0025 µM

stdin: Provide IC50 value for the following molecule: `COc1cc(CSCCc2ccc(OC)c(OC)c2)ccc1O`
stdout: 5 µM

stdin: Provide IC50 value for the following molecule: `COc1cc(OC)c(CCS(=O)(=O)Cc2ccc(OC)c(NCC(=O)O)c2)c(OC)c1`
stdout: 0.5 µM

stdin: Provide IC50 value for the following molecule: `COc1ccc(CCNC(=O)c2ccc(OC)c([N+](=O)[O-])c2)cc1`
stdout: 75 µM

stdin: Provide IC50 value for the following molecule: `COc1ccc(CCNC(=O)c2ccc(OC)cc2)cc1`
stdout: 100 µM

stdin: Provide IC50 value for the following molecule: `O=S(=O)(CCc1ccc(F)cc1)Cc1ccc(Cl)cc1`
stdout: 1.5 µM

====

measurement-name: melting point

Sample records with melting point:
COc1cc(OC)c(CCS(=O)(=O)Cc2ccc(OC)c(NCC(=O)O)c2)c(OC)c1 | 146 to 150 °C
COc1cc(OC)c(CCS(=O)(=O)Cc2ccc(OC)c(N)c2)c(OC)c1 | 128 to 130 °C
COC(=O)CN(CC(=O)OC)c1cc(CS(=O)(=O)CCc2c(OC)cc(OC)cc2OC)ccc1OC | 86 to 88 °C
COc1cc(OC)c(CCS(=O)(=O)Cc2ccc(OC)c(O)c2)c(OC)c1 | 136 to 138 °C
O=C(O)c1ccc(CCS(=O)(=O)Cc2ccc(Cl)cc2)cc1 | 265 to 267 °C

Turning now to a further molecule:
stdin: Provide melting point value for the following molecule: `O=S(=O)(CCc1ccc(F)cc1)Cc1ccc(Cl)cc1`
stdout: 142 to 144 °C
